conditions: in n-propanol, 313.15 K
ASSAY READOUT: solubility (mole fraction)
One number for each entry.

Which solubility (mole fraction) reading was recorded for the compound COc1cc([N+](=O)[O-])ccc1N ? 0.00738

---

settings: in 1,4-dioxane, 308.15 K
ASSAY READOUT: solubility (mole fraction)
Numbers only.

Which solubility (mole fraction) reading was recorded for the compound COc1cc([N+](=O)[O-])ccc1N ? 0.0775

---

conditions: in methanol, 298.15 K
ASSAY READOUT: solubility (mole fraction)
Numbers only.

Which solubility (mole fraction) reading was recorded for the compound COc1cc([N+](=O)[O-])ccc1N ? 0.00466

---

conditions: in NMP, 308.15 K
ASSAY READOUT: solubility (mole fraction)
Answers are plain numbers.

Which solubility (mole fraction) reading was recorded for the compound COc1cc([N+](=O)[O-])ccc1N ? 0.359

---

conditions: in water, 308.15 K
ASSAY READOUT: solubility (mole fraction)
Numbers only.

Which solubility (mole fraction) reading was recorded for the molecule COc1cc([N+](=O)[O-])ccc1N ? 2.4e-05

---

details: in water, 293.15 K
ASSAY READOUT: solubility (mole fraction)
Numbers only.

Which solubility (mole fraction) reading was recorded for the compound COc1cc([N+](=O)[O-])ccc1N ? 9e-06

---

settings: in n-propanol, 303.15 K
ASSAY READOUT: solubility (mole fraction)
Answers are plain numbers.

Which solubility (mole fraction) reading was recorded for the compound COc1cc([N+](=O)[O-])ccc1N ? 0.00512

---

settings: in DMSO, 318.15 K
ASSAY READOUT: solubility (mole fraction)
Numbers only.

Which solubility (mole fraction) reading was recorded for the molecule COc1cc([N+](=O)[O-])ccc1N ? 0.321

---

settings: in acetonitrile, 318.15 K
ASSAY READOUT: solubility (mole fraction)

Which solubility (mole fraction) reading was recorded for the molecule COc1cc([N+](=O)[O-])ccc1N ? 0.0683

---

details: in NMP, 318.15 K
ASSAY READOUT: solubility (mole fraction)
Numbers only.

Which solubility (mole fraction) reading was recorded for the molecule COc1cc([N+](=O)[O-])ccc1N ? 0.402

---

settings: in 1,4-dioxane, 303.15 K
ASSAY READOUT: solubility (mole fraction)
Numbers only.

Which solubility (mole fraction) reading was recorded for the molecule COc1cc([N+](=O)[O-])ccc1N ? 0.0652

---

conditions: in methanol, 293.15 K
ASSAY READOUT: solubility (mole fraction)

Which solubility (mole fraction) reading was recorded for the compound COc1cc([N+](=O)[O-])ccc1N ? 0.00392

---

details: in NMP, 288.15 K
ASSAY READOUT: solubility (mole fraction)
Give bare numbers.

Which solubility (mole fraction) reading was recorded for the compound COc1cc([N+](=O)[O-])ccc1N ? 0.287

---

conditions: in acetonitrile, 323.15 K
ASSAY READOUT: solubility (mole fraction)

Which solubility (mole fraction) reading was recorded for the compound COc1cc([N+](=O)[O-])ccc1N ? 0.0872

---

conditions: in ethylene glycol, 323.15 K
ASSAY READOUT: solubility (mole fraction)
Answers are plain numbers.

Which solubility (mole fraction) reading was recorded for the compound COc1cc([N+](=O)[O-])ccc1N ? 0.00973

---

details: in ethylene glycol, 293.15 K
ASSAY READOUT: solubility (mole fraction)
One number for each entry.

Which solubility (mole fraction) reading was recorded for the molecule COc1cc([N+](=O)[O-])ccc1N ? 0.00284
